- System: NTERA-2-cl-D1 (Other Solid Carcinomas)
- Procedure details: combination Emax (second highest fraction inhibited in the dose matrix, 72 h); higher = more inhibition; extreme values may be limits of the assay

Compound	combination Emax
O=C(c1cc(Cc2n[nH]c(=O)c3ccccc23)ccc1F)N1CCN(C(=O)C2CC2)CC1 [Olaparib] + COc1nnc2ccc(N3CCC(c4ccc(OCCN5CCN(C)C(=O)[C@H]5C)cc4)CC3)nn12 [AZD5153] (first compound max 10 µM, 7x7, partner max 1 µM)	0.649
CC1(C)CCC(CN2CCN(c3ccc(C(=O)NS(=O)(=O)c4ccc(NCC5CCOCC5)c([N+](=O)[O-])c4)c(Oc4cnc5[nH]ccc5c4)c3)CC2)=C(c2ccc(Cl)cc2)C1 [Venetoclax] + Cc1cc2ncnn2cc1Nc1ncc2c(n1)n(C1CCOCC1)c(=O)n2C [AZD7648] (first compound max 1 µM, 7x7, partner max 10 µM)	0.743
COc1cc2c(cc1OCCCCCOc1cc3c(cc1OC)C(=O)N1C=C(C)C[C@H]1C=N3)N=C[C@@H]1CC(C)=CN1C2=O [SG3199] + O=C(c1cc(Cc2n[nH]c(=O)c3ccccc23)ccc1F)N1CCN(C(=O)C2CC2)CC1 [Olaparib] (first compound max 0.001 µM, 7x7, partner max 10 µM)	0.457
